Values from patent US9987379B2

Entries and their measured pKi follow.
- testedSystem: [3H]BMB binding sites on rat myelin fractions
- protocolNotes: Competition binding assay using [3H]BMB as radioligand in isolated myelin fractions
- conditionSet: 1.87 nM [3H]BMB, Cheng-Prusoff from IC50
pKi: −log10 of the molar value.
reportedEndpoint: pKi

1. CN(C)c1ccc(/C=C/c2ccc(N)cc2)cc1
6.92
2. CNc1ccc(C=Cc2ccc(N)cc2)cc1
6.90
3. Nc1ccc(C=Cc2ccc(I)cc2)cc1 [Compound 9, 4-[2-(4-Iodo-phenyl)-vinyl]-phenylamine]
6.31
4. Nc1ccc(/C=C/c2ccc(N)cc2)cc1 [Compound 3, (E)-4,4′-diamino-trans-stilbene]
6.43

###

- protocolNotes: Log P of CMC
- Assay type: physicochemical
- conditionSet: method not stated
reportedEndpoint: logP

1) Nc1ccc(-c2cc3ccccc3oc2=O)cc1
2.68
